target: Dystroglycan (Cricetulus griseus) (UniProt G3H8F4); test: Increase of functional O-mannosylation of alpha-dystroglycan in Chinese hamster pro5 cells expressing LARGE after 48 hrs by alpha-screen assay; type: cell-based
Sequence (G3H8F4 as listed by the source): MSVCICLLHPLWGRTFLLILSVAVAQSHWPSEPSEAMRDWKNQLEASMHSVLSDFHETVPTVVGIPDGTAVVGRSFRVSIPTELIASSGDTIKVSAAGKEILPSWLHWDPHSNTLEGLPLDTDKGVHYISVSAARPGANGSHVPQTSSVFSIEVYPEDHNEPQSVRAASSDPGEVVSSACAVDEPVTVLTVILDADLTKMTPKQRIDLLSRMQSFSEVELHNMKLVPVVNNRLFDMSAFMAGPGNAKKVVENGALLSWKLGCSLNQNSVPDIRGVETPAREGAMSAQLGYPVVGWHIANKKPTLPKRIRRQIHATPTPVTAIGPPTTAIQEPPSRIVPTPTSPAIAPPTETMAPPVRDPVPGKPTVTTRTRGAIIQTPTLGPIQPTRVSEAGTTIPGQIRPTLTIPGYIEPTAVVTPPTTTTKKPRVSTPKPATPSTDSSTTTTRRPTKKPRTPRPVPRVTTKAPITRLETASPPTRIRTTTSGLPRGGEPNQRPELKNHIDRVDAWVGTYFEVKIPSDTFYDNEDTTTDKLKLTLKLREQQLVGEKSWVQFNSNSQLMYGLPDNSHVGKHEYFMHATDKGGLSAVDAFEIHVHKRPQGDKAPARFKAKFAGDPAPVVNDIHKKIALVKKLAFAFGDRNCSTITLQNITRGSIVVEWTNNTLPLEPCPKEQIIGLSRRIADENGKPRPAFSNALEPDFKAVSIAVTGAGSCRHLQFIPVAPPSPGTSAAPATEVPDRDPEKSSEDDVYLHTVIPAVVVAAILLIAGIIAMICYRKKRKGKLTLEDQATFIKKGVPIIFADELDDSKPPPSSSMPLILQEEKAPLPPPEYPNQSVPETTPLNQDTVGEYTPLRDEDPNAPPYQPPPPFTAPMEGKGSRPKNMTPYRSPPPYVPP
measurementKind: EC1.5 (µM)

Look over these answered cases.
Name the recorded EC1.5 of CCC(c1nnnn1CCc1cccs1)N1CCN(c2nc3cccc(F)c3s2)CC1 (stereo unspecified) , assay system Dystroglycan (Cricetulus griseus) (UniProt G3H8F4). 64

Name the recorded EC1.5 of CCC(c1nnnn1Cc1cccs1)N1CCN(c2nc3c(F)cc(F)cc3s2)CC1 (stereo unspecified) , assay system Dystroglycan (Cricetulus griseus) (UniProt G3H8F4). 17

Name the recorded EC1.5 of CCC(c1nnnn1Cc1cccs1)N1CCN(c2nc3cc(N)cc(F)c3s2)CC1 (stereo unspecified) , assay system Dystroglycan (Cricetulus griseus) (UniProt G3H8F4). 1.2

Name the recorded EC1.5 of `c1csc(Cn2nnnc2CN2CCN(c3nc4ccccc4s3)CC2)c1` , assay system Dystroglycan (Cricetulus griseus) (UniProt G3H8F4). 8.7

Name the recorded EC1.5 of CCC(c1nnnn1Cc1cccs1)N1CCC(c2nc3ccccc3s2)CC1 (stereo unspecified) , assay system Dystroglycan (Cricetulus griseus) (UniProt G3H8F4). 9.6

P. CCC(c1nnnn1Cc1cccs1)N1CCN(c2nc3c(F)cccc3s2)CC1 (stereo unspecified)
Q. CCC(c1nnnn1Cc1cccs1)N1CCN(c2nc3cccc(C(F)(F)F)c3s2)CC1 (stereo unspecified)
R. CCC(c1nnnn1Cc1cccs1)N1CCN(c2nc3c(N)cccc3s2)CC1 (stereo unspecified)
Ascending by EC1.5, please. Dear reader, please state the labels in the requested order. P, R, Q
(P: 4.9 µM, R: 16 µM, Q: 25 µM)

a. CCC(c1nnnn1Cc1cccs1)N1CCN(c2nc3ccc(C(=O)O)cc3s2)CC1 (stereo unspecified)
b. CCC(c1cnnn1Cc1cccs1)N1CCN(c2nc3ccccc3s2)CC1 (stereo unspecified)
Given a and b , report the one with the higher recorded EC1.5. In your reply, give the label of the chosen option. b
(b: 48 µM, a: 19 µM)

A. CCC(c1nnnn1Cc1cccs1)N1CCN(c2nc3cccc(O)c3s2)CC1 (stereo unspecified)
B. CCC(c1nnnn1Cc1cccs1)N1CCN(c2nc3cc(OC)c(OC)c(OC)c3s2)CC1 (stereo unspecified)
Given A and B , report the one with the higher recorded EC1.5. In your reply, give the label of the chosen option. A
(A: 21 µM, B: 6.5 µM)
